Provide the reported Neut IC50 (µg/ml) subtype A of each item.
# target-or-system: RSV F protein of subtype A (strain A2) on recombinant mKate-RSV virus (Respiratory syncytial virus subtype A …, UniProt P03420 26-574)
# test-details: cell-based or functional assay
// units = µg/mL; emit number, no label

# input Consider the binder ADI-18904 (antibody, V domains shown, full-length IgG from yeast; also called Antibody Number 259; Ab # 259) VH: EVQLVESGSEVKKPGAAVKVSCKASGYIFANFGVSWVRQAPGQGLEWMGWISAYNGNTNYAQKFQGRVIMTTDTSTSTAYMELRSLRSDDTAVYYCARDPPAYAATLMDVWGKGTTVTVSS VL: DIVMTQSPLSLPVTLGQSASISCRSSQSLEHSDTNTYLTWYQQRPGQSPRRLLYKVSNRDSGVPDRFSGSGSGTDFTLKISRVEAEDVGVYYCMQGTHWPPTFGQGTKLEIK and give its measured Neut IC50 (µg/ml) subtype A.
# output 0.018

# input Give the measured Neut IC50 (µg/ml) subtype A of ADI-18894 (antibody, V domains shown, full-length IgG from yeast; also called Antibody Number 249; Ab # 249) VH: QVQLVQSGGGVVQPGRSLKHSCAASGFTFNNYAIHWVRQAPGKGLEWVAAISYDGSNEYYSNSVKGRFTISRDNSKYTLYLQMNSLRPEDTAVYYCARGASYYYVSSDLGYWGQGTLVTVSS VL: QPVLTQPPSVSGAPGQRVTISCTGSSSNIGSGYDVHWYQQLPGTAPKVVIYGNINRPSGVPERFSGSKSGTSASLAITGLQAEDEADYYCQSYDSLSASWVFGGGTKLTVL .
# output 0.345

# input Returns the measured Neut IC50 (µg/ml) subtype A for the input binder. Input: ADI-18899 (antibody, V domains shown, full-length IgG from yeast) VH: EVQLVESGGGVVQSGRSLRLSCAASGFTFSDNGMHWVRQAPGKGLEWVAGIFYDGSNKQYADSVKGRFTISRDNSKSTLYLQMNSLRAEDTAVYYCARAPYDIWSGYCLDYWGQGTLVTVSS VL: DIRLTQSPATLSMSPGERATLSCRASQSVNNNLAWYQQRPGQAPRLLIYGASTRATGIPARFSGSGSETEFTLTISSLQSEDFAVYHCQQYSIWPQTFGQGTKVDIK
# output 0.742

# input State the recorded Neut IC50 (µg/ml) subtype A for this entry: ADI-18897 (antibody, V domains shown, full-length IgG from yeast) VH: EVQLVESGGGLVQPGGSLRLSCAASGFTIGTYWMSWVRQAPGKGLEWVANIKPDGSEQYYGDSVKGRFTISRDNAKNSLYLQMHSLRAEDAAVFYCARDTPDVLRHLEWPPVGAFDIWGQGTTVTVSS VL: EIVMTQSPDSLAVSLGERATINCKSSQSLFYSSTNQHYLAWYQQKPGQPPELLIYWASIRESGVPDRFSGSGSGTDFTLTISSLQAADVAVYYCQQYYSSPQTFGQGTKVEIK
# output 0.288

# input What value of Neut IC50 (µg/ml) subtype A has been reported for the following binder? ADI-18911 (antibody, V domains shown, full-length IgG from yeast) VH: QVQLVESGAEARKPGESLKISCKASGYSFTNYWIGWVRQMPGKGLEWMGVIYPADSDTRYSPSFKGQVTISADKSISTAYLQWTRLKASDTAVYFCARLGIGAAARNYWGQGTLVTVSS VL: DIQVTQSPSSLSASVGDRVTITCQASQDISDSLNWYQQKPGKAPNLLIYDASKSETGVPSRFSGSGSGTDFTFTISSLQPEDLATYYCLQFDNLPPTFGQGTRLEIK
# output 0.301

# input Sample ADI-18965 (antibody, V domains shown) VH: QVQLVQSGAEVKKPGASVKISCKASGYPFSSYPMHWVRQAPGQRLEWMGWINVDNENTKYSWKFRGRVTITRDTSASTVYMELSSLISEDTAVYYCGRDWDGAIRVLDYWGQGTLVTVSS VL: DIVMTQTPDSLAVSLGERATITCKSSQSVLFSSDNKNYLAWYQQKPGQPPKLLIYWASIRESGVPDRFGGSGSGTHFTLTITSVQAADVAVYYCQQYYGNFPTFGQGTRLEIK — what was its Neut IC50 (µg/ml) subtype A?
# output 3.02

# input Which measured Neut IC50 (µg/ml) subtype A value corresponds to ADI-18917 (antibody, V domains shown, full-length IgG from yeast; also called Antibody Number 271; Ab # 271) VH: EVQLVESGGGLVKPGGSLRLSCAASGFTFSSFGMHWVRQAPGQGLEWVASITGGSSYINYADSVKGRFTISRDNAKKSLSLQMKNLRAEDTAEYYCVRGVLPGDTGGGWFDSWGQGTLVTVSS VL: QSVLTQPPSMSGAPGQRVTISCTGTSSNIGAGYDVQWYQQFPGTAPKLLISGNNNRPSGVPDRFSGSKSGASASLAITGLQAEDEADYYCQSYDYSLNWVFGGGTKLTVL ?
# output 0.024

# input Need Neut IC50 (µg/ml) subtype A of ADI-18957 (antibody, V domains shown, full-length IgG from yeast) VH: EVQLLESGGGLVKPGESLRLSCAASGFTLSGYYMNWVRQAPGRGLEWVSSISGGSNYINYADSVKGRFTISRDNAKNSLYLQMNSLRVEDTAVYYCARVHVDLVTTIFGVDFDFWGQGTLVTVSS VL: QSVLTQPPSVSGAPGQRVTISCTGSSSNIGAGYDVHWYQQLPGTAPKLLIYGNTNRPAGVPDRFSGSKSGSSASLAITGLQAEDEADYYCQSYDSSLSGAIFGGGTKLTVL , thanks.
# output 1.34

# input Tell me the measured Neut IC50 (µg/ml) subtype A of ADI-18948 (antibody, V domains shown, full-length IgG from yeast; also called Antibody Number 300; Ab # 300) VH: EVQLLESGGGVVQSGRSLRLSCVASGFTFSDSGMHWVRQAPGKGLEWVAGLFYDGSNKQYADSVKGRFTISRDNSKSTLYLQMNSLRAEDTAVYYCARAPYDIWSGYCLDYWGQGTLVTVSS VL: EIVLTQSPATLYMSPGERATLSCRASQSVNNNLAWYQQRPGQAPRLLIYGASTRATGIPARFSGSGSETEFTLTISSLQSEDFAVYHCQQYSIWPQTFGQGTKLEIK , please.
# output 1.12

Hey, just so you know, these numbers are from patent US20200223906A1.
